meta.source: the kinase profiling compilation of Christmann-Franck et al. (2016)

target: BMP2K (human); test: KINOMEscan competition binding; conditions: compound 10.0 µM
Each record here notes measured kinase still bound, per cent of control.
MEASURED PARAMETER: kinase still bound, per cent of control (%)

{"columns": ["QUERY SMILES", "NUMERIC READOUT"],
 "data": [
  ["COc1ccc(CNC(=O)Nc2ncc([N+](=O)[O-])s2)cc1", 100],
  ["Cn1cc(C2=C(c3ccc(Cl)cc3Cl)C(=O)NC2=O)c2ccccc21", 58],
  ["Cc1cnc(-c2cnc(NCCNc3ccc(C#N)cn3)nc2-c2ccc(Cl)cc2Cl)[nH]1", 99],
  ["O=C1Nc2cc(Br)ccc2/C1=C1/Nc2ccccc2/C1=N\\O", 0.65]
]}

* * *

molecular target: CDK18 (human); experiment: KINOMEscan competition binding; conditions: compound 10.0 µM
MEASURED PARAMETER: kinase still bound, per cent of control (%)

{"columns": ["QUERY SMILES", "TEST TARGET", "MEASURED PARAMETER", "NUMERIC READOUT"],
 "data": [
  ["O=C1Nc2cc(Br)ccc2/C1=C1/Nc2ccccc2/C1=N\\O", "CDK18 (human)", "kinase still bound, per cent of control", 12],
  ["COc1ccc(CNC(=O)Nc2ncc([N+](=O)[O-])s2)cc1", "CDK18 (human)", "kinase still bound, per cent of control", 89],
  ["Cc1cnc(-c2cnc(NCCNc3ccc(C#N)cn3)nc2-c2ccc(Cl)cc2Cl)[nH]1", "CDK18 (human)", "kinase still bound, per cent of control", 100],
  ["Cn1cc(C2=C(c3ccc(Cl)cc3Cl)C(=O)NC2=O)c2ccccc21", "CDK18 (human)", "kinase still bound, per cent of control", 7.4]
]}

* * *

molecular target: PRKD2 (human) (UniProt Q9BZL6); experiment: KINOMEscan competition binding; conditions: compound 10.0 µM
Sequence (Q9BZL6 whole entry, looked up): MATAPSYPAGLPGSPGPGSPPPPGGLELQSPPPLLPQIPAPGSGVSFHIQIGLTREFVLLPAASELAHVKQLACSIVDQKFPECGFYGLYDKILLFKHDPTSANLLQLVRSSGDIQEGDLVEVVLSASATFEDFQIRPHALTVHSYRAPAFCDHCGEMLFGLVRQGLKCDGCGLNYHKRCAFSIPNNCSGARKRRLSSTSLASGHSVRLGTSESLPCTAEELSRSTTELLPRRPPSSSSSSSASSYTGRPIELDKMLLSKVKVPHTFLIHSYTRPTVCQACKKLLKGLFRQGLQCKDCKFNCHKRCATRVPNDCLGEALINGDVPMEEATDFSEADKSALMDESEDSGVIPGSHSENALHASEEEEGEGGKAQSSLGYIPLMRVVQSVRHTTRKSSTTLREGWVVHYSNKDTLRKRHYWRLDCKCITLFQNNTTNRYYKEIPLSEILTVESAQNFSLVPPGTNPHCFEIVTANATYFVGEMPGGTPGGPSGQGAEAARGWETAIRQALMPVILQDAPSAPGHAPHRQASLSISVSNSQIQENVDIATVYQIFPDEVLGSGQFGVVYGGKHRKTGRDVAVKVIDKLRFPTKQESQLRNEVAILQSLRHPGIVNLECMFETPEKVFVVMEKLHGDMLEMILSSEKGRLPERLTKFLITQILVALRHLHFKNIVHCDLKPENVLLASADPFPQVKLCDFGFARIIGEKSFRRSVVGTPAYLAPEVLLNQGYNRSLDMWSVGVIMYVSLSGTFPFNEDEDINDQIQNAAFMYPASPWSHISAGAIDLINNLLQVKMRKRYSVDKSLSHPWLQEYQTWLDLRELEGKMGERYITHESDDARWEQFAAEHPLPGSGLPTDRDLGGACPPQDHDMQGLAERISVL
Each record here notes measured kinase still bound, per cent of control.
MEASURED PARAMETER: kinase still bound, per cent of control (%)

{"columns": ["QUERY SMILES", "TEST TARGET", "UNIT TAG", "NUMERIC READOUT"],
 "data": [
  ["COc1ccc(CNC(=O)Nc2ncc([N+](=O)[O-])s2)cc1", "PRKD2 (human) (UniProt Q9BZL6)", "%", 93],
  ["Cc1cnc(-c2cnc(NCCNc3ccc(C#N)cn3)nc2-c2ccc(Cl)cc2Cl)[nH]1", "PRKD2 (human) (UniProt Q9BZL6)", "%", 100],
  ["O=C1Nc2cc(Br)ccc2/C1=C1/Nc2ccccc2/C1=N\\O", "PRKD2 (human) (UniProt Q9BZL6)", "%", 100],
  ["Cn1cc(C2=C(c3ccc(Cl)cc3Cl)C(=O)NC2=O)c2ccccc21", "PRKD2 (human) (UniProt Q9BZL6)", "%", 99]
]}

* * *

biological target: CAMKK1 (human) (UniProt Q8N5S9); experiment: KINOMEscan competition binding; settings: compound 10.0 µM
Sequence (Q8N5S9 whole entry, looked up): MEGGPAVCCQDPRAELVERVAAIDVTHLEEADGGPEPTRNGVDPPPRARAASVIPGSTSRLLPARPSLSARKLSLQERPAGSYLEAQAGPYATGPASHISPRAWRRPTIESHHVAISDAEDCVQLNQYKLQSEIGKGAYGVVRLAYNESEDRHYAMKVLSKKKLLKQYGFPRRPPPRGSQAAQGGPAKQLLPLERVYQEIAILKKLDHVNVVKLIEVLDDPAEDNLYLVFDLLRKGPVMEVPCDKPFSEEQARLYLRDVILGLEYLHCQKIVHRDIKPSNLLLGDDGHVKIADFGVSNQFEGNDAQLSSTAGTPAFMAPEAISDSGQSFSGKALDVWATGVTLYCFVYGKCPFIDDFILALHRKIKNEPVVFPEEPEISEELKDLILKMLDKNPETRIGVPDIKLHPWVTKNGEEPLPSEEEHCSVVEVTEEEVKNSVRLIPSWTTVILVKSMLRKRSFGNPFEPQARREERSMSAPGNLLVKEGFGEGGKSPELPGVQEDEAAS

{"columns": ["QUERY SMILES", "UNIT TAG", "kinase still bound, per cent of control"],
 "data": [
  ["O=C1Nc2cc(Br)ccc2/C1=C1/Nc2ccccc2/C1=N\\O", "%", 4.8],
  ["Cc1cnc(-c2cnc(NCCNc3ccc(C#N)cn3)nc2-c2ccc(Cl)cc2Cl)[nH]1", "%", 100],
  ["Cn1cc(C2=C(c3ccc(Cl)cc3Cl)C(=O)NC2=O)c2ccccc21", "%", 68],
  ["COc1ccc(CNC(=O)Nc2ncc([N+](=O)[O-])s2)cc1", "%", 93]
]}
